Hey, just so you know, these numbers are from PubChem BioAssay AID1159580.

- TEST PROTOCOL: chemical genetic growth profiling, strain panel (AID 1159580);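 note: tested at 20 µM; growth read once vehicle control cultures reached saturation at 30 °C; 1 = growth at the plate median or of vehicle wells; lower values mean less growth of the strain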
- MEASUREMENT SETUP: S. cerevisiae deletion strains, growth OD, locus YER167W, strain BCK2
The campaign covered roughly 5,500 compounds. About 2,000 (36%) were called active. About 18% were inconclusive and are not listed. Cut-off read from the data, not from the text of the source: active = normalized growth mostly below about 0.91 (no sharp cut-off); inconclusive = no clear call, values can overlap the other calls; inactive = mostly above about 0.92. The list shows a part of the results.
Field 'call' accepts active, inactive

Here's what some known entries look like.
MOLECULE	CATEGORY
CC(=O)N[C@@H](CC(C)C)C(=O)O	inactive
CCOC(=O)CCC(=O)O[C@H]1[C@H](O[C@@H]2[C@@H](C)[C@H](O[C@H]3C[C@@](C)(OC)[C@@H](O)[C@H](C)O3)[C@@H](C)C(=O)O[C@H](CC)[C@@](C)(O)[C@H](O)[C@@H](C)C(=O)[C@H](C)C[C@@]2(C)O)O[C@H](C)C[C@@H]1N(C)C	inactive
CCOC(=O)C(=O)C1(C(=O)OCC)Oc2cc(OC)cc(OC)c2C(=O)C1c1ccccc1 (centres undefined)	inactive

Below: the item to evaluate.
Query: recorded result category for CCCCCCCCNC(C)C(O)c1ccc(SC(C)C)cc1 (centres undefined) in this test
active

----------
Please respond with reported normalized growth for every item in the list.
- TEST PROTOCOL: chemical genetic growth profiling, strain panel (AID 1159580)
- MEASUREMENT SETUP: S. cerevisiae deletion strains, growth OD, locus YHR200W, strain rpn10, hits give low values
In all, about 5,500 compounds went through this assay and about 2,000 (36%) were called active. Not shown: some 18% with an inconclusive outcome. This is one part of the list.
One number for each entry.

COMPOUND	PROPERTY	READOUT VALUE
Cc1cc(O)c(C)c(O)c1C(=O)O	normalized growth	0.96
O=C(O)c1c2ccccc2cc2ccccc12	normalized growth	0.977
CCOC(=O)C(C)(C)Oc1ccc(Cl)cc1	normalized growth	1

Answer for every listed entry: what is its normalized growth? The entries follow.
1. CS(=O)(=O)c1ccc(C2=C(c3ccccc3)C(=O)OC2)cc1
2. CC1(C)OC(=O)NC1=O

0.969
0.981

Lab note: each compound below needs its normalized growth filled in.
1. c1cncc(C2CCCCN2)c1 (stereo unspecified)
2. OCC(O)C(O)C(O)CO (stereo unspecified)
3. C[N+](C)(C)CCCCCC[N+](C)(C)C

1. 0.999
2. 1
3. 0.989

List normalized growth for every entry below, keeping the order given.
1. CC(CCc1ccccc1)NC(C)C(O)c1ccc(O)cc1 (stereo unspecified)
2. NCC1CCC(C(=O)O)CC1 (stereo unspecified)
3. Cc1c(O)c(C(=O)CC(C)C)c2oc3c(C(=O)CC(C)C)c(O)c(C)c(O)c3c2c1O
4. CCOC(=O)C(=O)C1(C(=O)OCC)Oc2cc(OC)cc(OC)c2C(=O)C1c1ccccc1 (stereo unspecified)
5. CCCCCCCCNC(C)C(O)c1ccc(SC(C)C)cc1 (stereo unspecified)

[0.997, 0.973, 0.983, 0.942, 0.0572]

Below is a list of compounds. For each, state its recorded normalized growth.
1. CCOC(=O)C(Cc1ccc(O)cc1)NC(C)=O (stereo unspecified)
2. CC(=O)OCC(=O)[C@H]1CCC2C3CCC4=CC(=O)CC[C@]4(C)C3CC[C@@]21C (stereo partly specified)
3. CC(N)C(=O)OC(C)(C)Cc1ccc(Cl)cc1 (stereo unspecified)
4. COCCc1ccc(OCC(O)CNC(C)C)cc1 (stereo unspecified)
5. CC(C)OC(=O)C(C)(C)Oc1ccc(C(=O)c2ccc(Cl)cc2)cc1
6. CCN(CCO)CCCC(C)Nc1ccnc2cc(Cl)ccc12 (stereo unspecified)
7. CCCCCCCCCCCCCCCC[N+](C)(C)C
8. CC1=C(C(C)O)C2=NC1C=c1[nH]c(c(C)c1C(C)O)=Cc1[nH]c(c(CCC(=O)O)c1C)C=c1[nH]c(c(C)c1CCC(=O)O)=C2 (stereo unspecified)

1.01
0.924
0.987
1.02
0.995
1.02
0.0595
0.986

----------
Provide the recorded normalized growth for the entries that follow.
- TEST PROTOCOL: chemical genetic growth profiling, strain panel (AID 1159580)
- MEASUREMENT SETUP: S. cerevisiae deletion strains, growth OD, locus YIR030C, strain dcg1, hits give low values
Among all 5,500 compounds or so, about 2,000 (36%) were called active. Inconclusive results (about 18%) are left out. The list shows a part of the results.
Answers are plain numbers.

Guide cases for normalized growth, answers given:
COMPOUND	READOUT VALUE
C=Cc1c2[nH]c(c1C)C=c1[nH]c(c(C)c1C=C)=CC1N=C(C=c3[nH]c(c(C)c3CCC(=O)O)=C2)C(CCC(=O)O)=C1C (stereo not drawn)	0.986
NC(=O)c1ccc[n+]([C@@H]2O[C@H](COP(=O)([O-])OP(=O)(O)OC[C@H]3O[C@@H](n4cnc5c(N)ncnc54)[C@H](O)[C@@H]3O)[C@@H](O)[C@H]2O)c1	0.988
CC(N)CCCC(C)(C)O (stereo not drawn)	1.01
CCOC(=O)C(=O)C1(C(=O)OCC)Oc2cc(OC)cc(OC)c2C(=O)C1c1ccccc1 (stereo not drawn)	0.962
CCN(CC)CCNC(=O)c1cc(Br)c(N)cc1OC	0.986

Batch request: normalized growth for each of the following compounds.
1. CCCCCCCCCCCCCCCC(=O)OC/C=C(C)/C=C/C=C(C)/C=C/C1=C(C)CCCC1(C)C
2. CCOC(=O)C1(O)Oc2cc(OC)cc(OC)c2C(=O)C1c1ccccc1 (stereo not drawn)
3. CC1=C(/C=C/C(C)=C/C=C/C(C)=C/C=C/C=C(C)/C=C/C=C(C)/C=C/C23OC2(C)CC(O)CC3(C)C)C(C)(C)CC(O)C1 (stereo not drawn)

1. 0.989
2. 0.983
3. 1.01

----------
Please go through the items and note down their normalized growth.
- TEST PROTOCOL: chemical genetic growth profiling, strain panel (AID 1159580);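 note: tested at 20 µM; growth read once vehicle control cultures reached saturation at 30 °C; 1 = growth at the plate median or of vehicle wells; lower values mean less growth of the strain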
- MEASUREMENT SETUP: S. cerevisiae deletion strains, growth OD, locus YMR263W, strain SAP30, hits give low values
The campaign covered roughly 5,500 compounds. About 2,000 (36%) were called active. Another 18% or so got no clear call; they are omitted. Some of the results follow.
Answers are plain numbers.

Worked cases, normalized growth given:
MOLECULE	normalized growth
C=Cc1c2[nH]c(c1C)C=c1[nH]c(c(C)c1C=C)=CC1N=C(C=c3[nH]c(c(C)c3CCC(=O)O)=C2)C(CCC(=O)O)=C1C (stereo not given)	0.982
C[C@]12CCC(=O)C=C1CCC1C2CC[C@@]2(C)C1CC[C@@H]2O (stereo not given in full)	1.04
CN1CCC(=C2c3ccccc3CC(=O)c3sccc32)CC1	1.02

Batch request: normalized growth for each of the following molecules.
1. CC(=O)N[C@@H](CC(C)C)C(=O)O
2. COc1cc(/C=C2\NC(=O)NC2=O)ccc1O
3. Nc1nc2ccc(OC(F)(F)F)cc2s1
4. NCC(O)C1CCCCCCC1 (stereo not given)

[0.998, 0.998, 0.988, 0.999]

----------
- TEST PROTOCOL: chemical genetic growth profiling, strain panel (AID 1159580);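 note: tested at 20 µM; growth read once vehicle control cultures reached saturation at 30 °C; 1 = growth at the plate median or of vehicle wells; lower values mean less growth of the strain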
- MEASUREMENT SETUP: S. cerevisiae deletion strains, growth OD, locus YOL078W, strain AVO1, hits give low values
Hit rate of the full screen: of about 5,500 compounds, about 2,000 (36%) were called active. About 18% were inconclusive and are not listed. Some of the results follow.
PROPERTY: normalized growth
Give bare numbers.

CPD SMILES	normalized growth
Nc1ccccc1SCc1c(Cl)cccc1Cl	0.943
Cc1cc(C(=O)Nc2ccc(Cl)cc2)nn1C(C)(C)C	0.985
CCOC(=O)CSC(=S)NCc1ccc(C)cc1	0.948
O=S(=O)(Nc1cccc2nsnc12)c1cc(Cl)sc1Cl	0.957
Cc1nn(Cc2cccc(C(=O)Nc3ccc(Cl)cc3)c2)c(C)c1Br	0.973

So what's the measured normalized growth for this one? N#CC(C#N)=C(SCc1c(Cl)cccc1Cl)SCc1c(Cl)cccc1Cl
0.993

----------
- TEST PROTOCOL: chemical genetic growth profiling, strain panel (AID 1159580);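 note: tested at 20 µM; growth read once vehicle control cultures reached saturation at 30 °C; 1 = growth at the plate median or of vehicle wells; lower values mean less growth of the strain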
- MEASUREMENT SETUP: S. cerevisiae deletion strains, growth OD, locus YOR069W, strain VPS5
The whole screen tested about 5,500 compounds, of which about 2,000 (36%) were called active. Another 18% or so got no clear call; they are omitted. No stated cut-off is given here; in the data, active means normalized growth mostly below about 0.91 (no sharp cut-off); inconclusive means no clear call, values can overlap the other calls; inactive means mostly above about 0.92. Some of the results follow.
Select the matching outcome among active, inactive

Some solved entries appear below for comparison.
COMPOUND	CATEGORY
NCC1CCC(C(=O)O)CC1 (stereo not given)	inactive
COc1cc2c(cc1OC)[C@@H]1C(=O)c3ccc(OC)c(CC=C(C)C)c3O[C@@H]1CO2	inactive
CC(=O)[C@H]1CCC2C3CCC4=CC(=O)CC[C@]4(C)C3CC[C@@]21C (stereo not given in full)	inactive
COc1cc2c(cc1OC)[C@@H]1C(=O)c3ccc(O)c(CC=C(C)C)c3O[C@@H]1CO2	inactive
CC[C@H](/C=C/C(C)C1CCC2C3CCC4=CC(=O)CC[C@]4(C)C3CC[C@]12C)C(C)C (stereo not given in full)	inactive
CCC(=O)O[C@H]1CCC2C3CCC4=CC(=O)CC[C@]4(C)C3CC[C@@]21C (stereo not given in full)	inactive

Could you please tell me the result logged for COc1cc2c(cc1OC)[C@@H]1C(=O)c3ccc4oc(C(C)C)cc4c3O[C@@H]1CO2 in this assay?
inactive

Lab log entry: CCN(CCO)CCCC(C)Nc1ccnc2cc(Cl)ccc12 (stereo not given) — outcome as called in the assay?
inactive

# fetch the recorded call for C=C(C)[C@@H]1[C@H]2OC(=O)[C@@H]1[C@]1(O)C[C@H]3O[C@]34C(=O)O[C@H]2[C@]14C here
inactive

I would be grateful if you could indicate the recorded call for CC(=O)OC(C)(C)[C@@H]1Cc2cc3ccc(=O)oc3cc2O1 .
inactive

What call does the record list for CCCCCCCCCCCCCCCC[N+](C)(C)C ?
active

Recorded test call requested for CC(=O)C1CCC2C3CC(=O)C4=CC(=O)CCC4(C)C3CCC12C (stereo not given)
inactive

Hi, sorry to bother you, what did the test record for COc1cc2c(cc1OC)Cc1cc(OC)c(OC)cc1Cc1cc(OC)c(OC)cc1C2 ?
inactive

Hi, sorry to bother you, what did the test record for C[C@H]1CC2C([C@@H](O)C[C@@]3(C)C2CC[C@]3(O)C(=O)CO)[C@@]2(C)C=CC(=O)C=C12 (stereo not given in full) ?
inactive

Outcome? C[N+](C)(C)CCCCCC[N+](C)(C)C
inactive

I'd appreciate the recorded outcome for CO[C@H]1[C@H](O)[C@H](O[C@H]2CC[C@]3(C)C4CC[C@]5(C)C(C6=CC(=O)OC6)CC[C@]5(O)C4CC[C@@H]3C2)O[C@@H](C)[C@@H]1O (stereo not given in full) from this test.
inactive

Dear all, I need the recorded test outcome for CC(C)(OC(=O)c1ccccc1)[C@@H]1Cc2cc3ccc(=O)oc3cc2O1 , thank you.
inactive
